# ASSAY NAME: chemical genetic growth profiling, strain panel (AID 1159580);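 also: tested at 20 µM; growth read once vehicle control cultures reached saturation at 30 °C; 1 = growth at the plate median or of vehicle wells; lower values mean less growth of the strain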
# CONDITION PARAMETERS: S. cerevisiae deletion strains, growth OD, locus YLR262C, strain YPT6 (second series)
Screen size: about 5,500 compounds; about 2,000 (36%) were called active. Roughly 18% stayed inconclusive and do not appear here. Rule as the data show it: active = normalized growth mostly below about 0.91 (no sharp cut-off); inconclusive = no clear call, values can overlap the other calls; inactive = mostly above about 0.92. The list shows a part of the results.
Log the outcome using a class from class 1 = active, class 0 = inactive

Consider the worked cases shown below.
>  <COMPOUND>
Cc1cc(C(C)(C)CC(C)(C)C)ccc1OCCOCC[N+](C)(C)Cc1ccccc1

>  <CLASS ASSIGNMENT>
class 1

$$$$
>  <COMPOUND>
NC(N)=NOCC[C@H](N)C(=O)O

>  <CLASS ASSIGNMENT>
class 0

$$$$
>  <COMPOUND>
CCC1(C)CC(=O)NC1=O (configuration not stated)

>  <CLASS ASSIGNMENT>
class 0

$$$$
>  <COMPOUND>
COC(=O)COc1cc(Cl)c(Cl)cc1Cl

>  <CLASS ASSIGNMENT>
class 0

$$$$
>  <COMPOUND>
CC(C)CC1C(=O)N2CCC[C@H]2C2(O)O[C@](NC(=O)C3C=C4c5cccc6[nH]c(Br)c(c56)C[C@H]4N(C)C3)(C(C)C)C(=O)N12 (some centres not stated)

>  <CLASS ASSIGNMENT>
class 0

$$$$
>  <COMPOUND>
O=C1C[C@@H](c2ccc(O)cc2)Oc2cc(O)cc(O)c21

>  <CLASS ASSIGNMENT>
class 0

$$$$
>  <COMPOUND>
c1ccc(CN(CC2=NCCN2)c2ccccc2)cc1

>  <CLASS ASSIGNMENT>
class 0

$$$$
>  <COMPOUND>
CC(=O)CC(=O)CCC(=O)O

>  <CLASS ASSIGNMENT>
class 0

$$$$
>  <COMPOUND>
O=C(Cc1ccccc1)NO

>  <CLASS ASSIGNMENT>
class 0

$$$$
>  <COMPOUND>
O=C1CC(c2ccc(O)c(O)c2)Oc2cc(O)cc(O)c21 (configuration not stated)

>  <CLASS ASSIGNMENT>
class 0

$$$$

Query: Entry CN1CCCC(n2nc(Cc3ccc(Cl)cc3)c3ccccc3c2=O)CC1 (configuration not stated) : call = ?
Result: class 0

Query: Entry N=c1nc(N2CCCCC2)cc(N)n1O : call = ?
Result: class 0

Query: Entry COc1ccc2cc1Oc1ccc(cc1)C[C@H]1c3c(cc4c(c3Oc3cc5c(cc3OC)CCN(C)[C@@H]5C2)OCO4)CCN1C : call = ?
Result: class 0

Query: Entry CN=C(NC#N)NCCSCc1nc[nH]c1C : call = ?
Result: class 0

Query: Entry OCC(O)Cc1ccc2c(c1)OCO2 (configuration not stated) : call = ?
Result: class 0

Query: Entry CCCCCC(C)N (configuration not stated) : call = ?
Result: class 0

Query: Entry C[C@@H](N)CO : call = ?
Result: class 0

Query: Entry CN1C2CC3C[C@H]1C(O3)C2O (some centres not stated) : call = ?
Result: class 0

Query: Entry COc1cccc2c1CCC1CC(=O)CCC21C (configuration not stated) : call = ?
Result: class 0

Query: Entry C[N+](C)(C)CC(=O)[O-] : call = ?
Result: class 0

Query: Entry CNc1ccccc1C(=O)N1CCc2c([nH]c3ccccc23)C1=O : call = ?
Result: class 0
